// reported Dmax for each item listed
# Tgt: SMARCA4 (Homo sapiens)
# Construct: SMARCA2/SMARCA4 protein degradation selectivity in MV4-11 cells; endogenous in cells; host or cells: MV4-11
# Sequence (P51532 whole entry): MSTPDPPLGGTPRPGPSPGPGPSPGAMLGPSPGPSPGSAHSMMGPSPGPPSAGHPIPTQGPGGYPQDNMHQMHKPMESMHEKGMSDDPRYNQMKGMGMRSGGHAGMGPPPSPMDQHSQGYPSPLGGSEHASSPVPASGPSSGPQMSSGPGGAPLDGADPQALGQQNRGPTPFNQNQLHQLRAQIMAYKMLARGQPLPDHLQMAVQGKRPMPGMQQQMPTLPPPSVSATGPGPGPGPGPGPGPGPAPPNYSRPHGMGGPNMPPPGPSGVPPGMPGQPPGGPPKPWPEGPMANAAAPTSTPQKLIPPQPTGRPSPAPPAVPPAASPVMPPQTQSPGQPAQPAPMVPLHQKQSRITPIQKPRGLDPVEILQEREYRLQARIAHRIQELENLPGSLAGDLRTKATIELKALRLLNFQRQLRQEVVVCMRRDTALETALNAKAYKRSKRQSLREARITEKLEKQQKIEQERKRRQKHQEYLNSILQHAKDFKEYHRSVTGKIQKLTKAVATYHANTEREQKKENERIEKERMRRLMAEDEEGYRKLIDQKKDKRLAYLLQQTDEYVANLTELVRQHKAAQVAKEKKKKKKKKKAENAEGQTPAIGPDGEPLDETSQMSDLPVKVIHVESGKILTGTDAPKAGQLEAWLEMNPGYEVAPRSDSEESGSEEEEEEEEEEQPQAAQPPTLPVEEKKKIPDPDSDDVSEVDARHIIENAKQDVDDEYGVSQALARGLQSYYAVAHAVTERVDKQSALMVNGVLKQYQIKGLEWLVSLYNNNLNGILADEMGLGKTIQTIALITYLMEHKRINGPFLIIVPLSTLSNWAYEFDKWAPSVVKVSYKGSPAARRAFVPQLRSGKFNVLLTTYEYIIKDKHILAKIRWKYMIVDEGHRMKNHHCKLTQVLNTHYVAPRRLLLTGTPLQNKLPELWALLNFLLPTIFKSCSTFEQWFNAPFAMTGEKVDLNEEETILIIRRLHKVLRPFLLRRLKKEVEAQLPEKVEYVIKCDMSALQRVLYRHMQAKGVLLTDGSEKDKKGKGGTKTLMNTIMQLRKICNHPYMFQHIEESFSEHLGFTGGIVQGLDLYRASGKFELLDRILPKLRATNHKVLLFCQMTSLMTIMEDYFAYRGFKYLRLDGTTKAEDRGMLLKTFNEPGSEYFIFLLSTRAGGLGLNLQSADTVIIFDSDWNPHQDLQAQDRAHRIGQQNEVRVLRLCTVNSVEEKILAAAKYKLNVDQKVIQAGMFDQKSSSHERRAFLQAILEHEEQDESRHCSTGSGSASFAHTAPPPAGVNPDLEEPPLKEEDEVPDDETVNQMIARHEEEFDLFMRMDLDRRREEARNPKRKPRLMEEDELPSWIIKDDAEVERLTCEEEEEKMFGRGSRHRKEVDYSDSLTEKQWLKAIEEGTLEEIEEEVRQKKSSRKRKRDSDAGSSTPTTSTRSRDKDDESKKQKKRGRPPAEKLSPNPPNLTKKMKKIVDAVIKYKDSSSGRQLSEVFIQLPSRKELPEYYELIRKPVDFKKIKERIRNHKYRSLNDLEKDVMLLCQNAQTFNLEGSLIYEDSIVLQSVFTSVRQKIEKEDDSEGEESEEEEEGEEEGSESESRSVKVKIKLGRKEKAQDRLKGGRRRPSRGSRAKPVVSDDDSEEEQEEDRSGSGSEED
# Method Notes: SMARCA4 Western blot degradation in MV4-11 cells
# Format: cell-based
# Measurement Setup: MV4-11, MV4-11 cells, 24 h; read-out: SMARCA4 MSD MV411 degradation 24 h: average Dmax %

Here are 2 compounds together with their reported answers.
{"Compound": "Cc1ncsc1-c1ccc(CNC(=O)[C@@H]2C[C@@H](O)CN2C(=O)[C@@H](NC(=O)C2(F)CC2)C(C)(C)C)c(O[C@H]2CC[C@@H](N3CCC(N4CCC(c5cnc(N6CCc7[nH]c8nnc(-c9ccccc9O)cc8c7[C@@H]6C)nc5)CC4)CC3)CC2)c1 (single isomer, unassigned) [I-48]", "Value Measured": "> 90%"}
{"Compound": "Cc1ncsc1-c1ccc(CNC(=O)[C@@H]2C[C@@H](O)CN2C(=O)[C@@H](NC(=O)[C@H]2CCC3(CC2)C[C@H](N2CCC4(CC2)CN(C(=O)N2CCN5c6cc(-c7ccccc7O)nnc6NC[C@H]5C2)CCO4)C3)C(C)(C)C)cc1 (single isomer, unassigned) [I-133]", "Value Measured": "50 to 70%"}

Form: compound = C#Cc1ccc(CNC(=O)[C@@H]2C[C@@H](O)CN2C(=O)[C@@H](NC(=O)N2CCN(CC3CCN([C@H]4CC[C@H](N5CCc6[nH]c7nnc(-c8ccccc8O)cc7c6[C@H]5C)CC4)CC3)CC2)C(C)(C)C)cc1 [I-204] ; Dmax = < 50%

Form: compound = C#Cc1ccc(CNC(=O)[C@@H]2C[C@@H](O)CN2C(=O)[C@@H](NC(=O)c2ccc(N3CCC(N4CCC(N5CCN6c7cc(-c8ccccc8O)nnc7NC[C@H]6C5)CC4)CC3)cn2)C(C)(C)C)cc1 [I-292] ; Dmax = > 90%

Form: compound = C#Cc1ccc(CNC(=O)[C@@H]2C[C@@H](O)CN2C(=O)[C@@H](NC(=O)[C@H]2CCC3(CC2)C[C@H](N2CCC(c4cnc(N5CCN6c7cc(-c8ccccc8O)nnc7NC[C@H]6C5)nc4)CC2)C3)C(C)(C)C)cc1 (single isomer, unassigned) [I-25] ; Dmax = 70 to 90%

###

# Tgt: SMARCA2 (Homo sapiens, UniProt P51531)
# Sequence (P51531 whole entry): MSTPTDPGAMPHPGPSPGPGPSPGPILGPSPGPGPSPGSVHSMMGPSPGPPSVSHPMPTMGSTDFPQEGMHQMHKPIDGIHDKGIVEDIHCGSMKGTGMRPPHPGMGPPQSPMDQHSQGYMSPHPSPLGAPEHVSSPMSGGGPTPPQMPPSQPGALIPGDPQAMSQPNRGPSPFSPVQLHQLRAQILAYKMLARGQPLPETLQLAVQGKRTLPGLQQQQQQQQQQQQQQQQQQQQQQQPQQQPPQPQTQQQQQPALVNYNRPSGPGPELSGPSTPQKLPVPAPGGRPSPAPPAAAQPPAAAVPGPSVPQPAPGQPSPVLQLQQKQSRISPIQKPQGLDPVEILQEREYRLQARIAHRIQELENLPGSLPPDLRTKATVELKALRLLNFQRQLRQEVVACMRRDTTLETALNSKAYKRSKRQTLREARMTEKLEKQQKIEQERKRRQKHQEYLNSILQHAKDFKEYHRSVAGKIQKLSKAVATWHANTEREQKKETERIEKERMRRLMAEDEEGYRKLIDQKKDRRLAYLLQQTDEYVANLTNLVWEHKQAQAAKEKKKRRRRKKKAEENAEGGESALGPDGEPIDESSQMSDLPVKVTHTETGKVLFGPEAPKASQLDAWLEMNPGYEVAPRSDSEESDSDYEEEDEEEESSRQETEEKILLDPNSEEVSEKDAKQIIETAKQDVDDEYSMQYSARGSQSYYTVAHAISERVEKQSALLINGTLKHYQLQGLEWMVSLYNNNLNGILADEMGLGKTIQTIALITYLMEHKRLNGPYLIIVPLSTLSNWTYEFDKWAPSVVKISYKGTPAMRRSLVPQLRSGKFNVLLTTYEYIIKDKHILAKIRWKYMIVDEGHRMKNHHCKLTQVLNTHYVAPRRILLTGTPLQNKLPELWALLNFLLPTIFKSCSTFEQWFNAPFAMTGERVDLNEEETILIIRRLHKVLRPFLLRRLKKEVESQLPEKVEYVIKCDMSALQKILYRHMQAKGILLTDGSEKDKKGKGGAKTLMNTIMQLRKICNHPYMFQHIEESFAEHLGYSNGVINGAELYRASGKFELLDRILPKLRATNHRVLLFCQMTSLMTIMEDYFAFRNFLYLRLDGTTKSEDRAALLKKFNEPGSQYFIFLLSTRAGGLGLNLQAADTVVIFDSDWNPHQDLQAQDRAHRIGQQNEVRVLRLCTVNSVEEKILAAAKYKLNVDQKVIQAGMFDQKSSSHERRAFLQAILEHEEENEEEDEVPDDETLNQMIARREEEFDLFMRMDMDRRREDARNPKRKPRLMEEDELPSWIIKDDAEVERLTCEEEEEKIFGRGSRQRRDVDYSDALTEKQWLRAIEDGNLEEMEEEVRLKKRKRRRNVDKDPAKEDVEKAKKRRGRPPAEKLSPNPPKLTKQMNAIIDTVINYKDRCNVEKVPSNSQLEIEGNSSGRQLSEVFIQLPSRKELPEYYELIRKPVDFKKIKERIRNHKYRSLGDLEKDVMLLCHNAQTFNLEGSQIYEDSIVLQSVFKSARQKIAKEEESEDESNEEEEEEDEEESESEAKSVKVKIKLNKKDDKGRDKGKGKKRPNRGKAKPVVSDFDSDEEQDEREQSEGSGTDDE
# Method Notes: SMARCA2 Western blot degradation in MV4-11 cells
# Type: cell-based
# Set-up: SMARCA2/SMARCA4 protein degradation selectivity in MV4-11 cells; endogenous in cells; host or cells: MV4-11
# Measurement Setup: SMARCA2/4 selectivity, MV4-11 cells
Assay Readout: Selectivity in MV411

Here are 5 compounds together with their reported answers.
{"Compound": "C#Cc1ccc(CNC(=O)[C@@H]2C[C@@H](O)CN2C(=O)[C@@H](NC(=O)[C@H]2CCC3(CC2)C[C@H](N2CCN(c4cnc(N5CCN6c7cc(-c8ccccc8O)nnc7NC[C@H]6C5)nc4)CC2)C3)C(C)(C)CCO)cc1 (single isomer, unassigned) [I-299]", "Value Measured": "C (C (10-100 fold))"}
{"Compound": "C#Cc1ccc(CNC(=O)[C@@H]2C[C@@H](O)CN2C(=O)[C@@H](NC(=O)[C@H]2CCC3(CC2)C[C@H](N2CCC(c4cnc(N5CCN6c7cc(-c8ccccc8O)nnc7NC[C@H]6C5)nc4)CC2)C3)C(C)(C)C)cc1 (single isomer, unassigned) [I-25]", "Value Measured": "C (C (10-100 fold))"}
{"Compound": "Cc1ncsc1-c1ccc(CNC(=O)[C@@H]2C[C@@H](O)CN2C(=O)C(c2cc(N3CCC4(CC3)CC(N3CCC(c5cnc(N6CCc7[nH]c8nnc(-c9ccccc9O)cc8c7[C@@H]6C)nc5)CC3)C4)no2)C(C)C)cc1 (single isomer, unassigned)", "Value Measured": "D (D (<10 fold))"}
{"Compound": "C#Cc1ccc(CNC(=O)[C@@H]2C[C@@H](O)CN2C(=O)[C@@H](NC(=O)N2CC3(CC(N4CC5(CC(N6CCC(N7CCc8[nH]c9nnc(-c%10ccccc%10O)cc9c8[C@H]7C)CC6)C5)C4)C3)C2)C(C)(C)C)cc1", "Value Measured": "C (C (10-100 fold))"}
{"Compound": "C#Cc1ccc(CNC(=O)[C@@H]2C[C@@H](O)CN2C(=O)[C@@H](NC(=O)N2CCC(N3CCC(N4CC5(CC(N6CCc7[nH]c8nnc(-c9ccccc9O)cc8c7[C@H]6C)C5)C4)CC3)CC2)C(C)(C)C)cc1", "Value Measured": "C (C (10-100 fold))"}

Form: compound = `C#Cc1ccc(CNC(=O)[C@@H]2C[C@@H](O)CN2C(=O)[C@@H](NC(=O)N2CCC[C@H](CN3CCC(N4CCC(N5CCN6c7cc(-c8ccccc8O)nnc7NC[C@H]6C5)CC4)CC3)C2)C(C)(C)C)cc1` ; Selectivity in MV411 = D (D (<10 fold))

Form: compound = CC(C)C(C(=O)N1C[C@H](O)C[C@H]1C(=O)NCc1ccc(C#N)cc1)c1cc(N2CC3(CC(N4CCC(c5cnc(N6CCN7c8cc(-c9ccccc9O)nnc8NC[C@H]7C6)nc5)CC4)C3)C2)no1 (stereo partly shown) ; Selectivity in MV411 = C (C (10-100 fold))

Form: compound = Cc1ncsc1-c1ccc(CNC(=O)[C@@H]2C[C@@H](O)CN2C(=O)[C@@H](NC(=O)C2(F)CC2)C(C)(C)C)c(O[C@H]2CC[C@@H](N3CCC(N4CCC(c5cnc(N6CCc7[nH]c8nnc(-c9ccccc9O)cc8c7[C@@H]6C)nc5)CC4)CC3)CC2)c1 (single isomer, unassigned) ; Selectivity in MV411 = C (C (10-100 fold))

Form: compound = C#Cc1ccc(CNC(=O)[C@@H]2C[C@@H](O)CN2C(=O)[C@@H](NC(=O)[C@H]2CCC3(CC2)C[C@H](N2CCC(c4cnc(N5CCN6c7cc(-c8ccccc8O)nnc7NC[C@H]6C5)nc4)CC2)C3)C(C)(C)C)c(OCCCN(C)C)c1 (single isomer, unassigned) [I-158] ; Selectivity in MV411 = C (C (10-100 fold))

Form: compound = Cc1ncsc1-c1ccc(CNC(=O)[C@@H]2C[C@@H](O)CN2C(=O)[C@@H](NC(=O)C2(F)CC2)C(C)(C)C)c(OC2CCN(Cc3cnc(N4CCc5[nH]c6nnc(-c7ccccc7O)cc6c5[C@@H]4C)nc3)CC2)c1 (single isomer, unassigned) ; Selectivity in MV411 = C (C (10-100 fold))
